Molecular target: EphB4 (Homo sapiens)
Sequence (P54760 16-987, species assumed): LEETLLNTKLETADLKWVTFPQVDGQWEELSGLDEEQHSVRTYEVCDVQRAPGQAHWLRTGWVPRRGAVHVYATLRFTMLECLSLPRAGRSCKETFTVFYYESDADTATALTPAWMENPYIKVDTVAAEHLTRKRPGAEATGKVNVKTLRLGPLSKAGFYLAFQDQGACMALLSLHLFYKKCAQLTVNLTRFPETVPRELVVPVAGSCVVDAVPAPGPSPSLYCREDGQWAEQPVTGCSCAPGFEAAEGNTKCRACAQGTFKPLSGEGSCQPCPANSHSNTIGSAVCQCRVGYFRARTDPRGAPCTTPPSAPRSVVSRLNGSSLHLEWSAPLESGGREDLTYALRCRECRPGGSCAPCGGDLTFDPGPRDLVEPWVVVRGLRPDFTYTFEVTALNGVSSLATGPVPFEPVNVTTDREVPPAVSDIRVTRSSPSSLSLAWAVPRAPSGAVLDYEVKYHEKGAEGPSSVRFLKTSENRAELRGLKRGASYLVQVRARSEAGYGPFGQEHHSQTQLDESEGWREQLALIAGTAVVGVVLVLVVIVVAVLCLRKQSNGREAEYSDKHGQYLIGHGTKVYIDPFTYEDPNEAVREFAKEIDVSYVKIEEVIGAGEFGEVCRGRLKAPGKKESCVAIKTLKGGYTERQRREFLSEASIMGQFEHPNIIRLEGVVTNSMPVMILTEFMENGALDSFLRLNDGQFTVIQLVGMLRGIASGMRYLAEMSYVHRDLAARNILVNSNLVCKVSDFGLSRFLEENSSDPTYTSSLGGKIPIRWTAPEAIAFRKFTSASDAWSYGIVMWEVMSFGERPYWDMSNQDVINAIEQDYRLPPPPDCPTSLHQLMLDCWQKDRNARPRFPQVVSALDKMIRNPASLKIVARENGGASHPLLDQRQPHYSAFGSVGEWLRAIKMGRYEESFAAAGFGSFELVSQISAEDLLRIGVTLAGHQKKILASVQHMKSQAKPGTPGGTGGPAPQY
pIC50: −log10 of the molar value.
recordedMetric: pIC50

The examples below pair each entry with its known result.
- compound: "CCN1CCN(c2ccc3[nH]c(-c4cc(-c5ccc(NC(=O)Nc6cccc(C(F)(F)F)c6)cc5)[nH]n4)nc3c2)CC1 [Entry 4]"
  pIC50: "5.30 to 6.30"
- compound: "CN1CCN(c2ccc3[nH]c(-c4cc(-c5ccc(NC(=O)Nc6ccccc6)cc5)[nH]n4)nc3c2)CC1 [Entry 39]"
  pIC50: "< 5.30"

For the next question, use this compound.
*Q* Report pIC50 on EphB4 (Homo sapiens) for this entry: CC(=O)c1cccc(NC(=O)Nc2ccc(-c3cc(-c4nc5cc(N6CCN(C)CC6)ccc5[nH]4)n[nH]3)cc2)c1 [Entry 5]
*A* 5.30 to 6.30
